# System: L1210 leukemia ip in BDF1 mice, survival T/C
# experimental_details: NCI In Vivo Anticancer Drug Screen. Data for tumor model L1210 Leukemia (intraperitoneal) in B6D2F1 (BDF1) mice
# measurement_context: endpoint: mean survival time; dose: 100.0 mg/kg/injection; schedule: Q01DX009 (ip); vehicle: Klucel (hydroxypropylcellulose) (HPC); higher = longer survival
Inconclusive results and toxic doses are left out.
The molecules listed here are annotated with their T/C.
property: T/C

INSERT INTO measurements (molecule, readout_value) VALUES
  ('O=C(Nc1ccc(F)c([N+](=O)[O-])c1)Nc1cccc2c(O)cccc12', '101 % of control'),
  ('O=C1CC(N2CC2)C(=O)N1c1ccccc1 (stereo unspecified)', '104 % of control'),
  ('CCOC(=O)C(CCc1cc2ccccc2[nH]1)(C(=O)OCC)N1C(=O)c2ccccc2C1=O', '94 % of control'),
  ('O=C(Nc1cccc(F)c1)N(CC(O)c1ccccc1)C1CCCCC1 (stereo unspecified)', '114 % of control'),
  ('O=C(Nc1cccc(F)c1)Nc1cccc(C(F)(F)F)c1', '96 % of control'),
  ('CC(OC(C)c1ccccc1)c1ccccc1 (stereo unspecified)', '96 % of control'),
  ('O=[N+]([O-])c1cc2c(c([N+](=O)[O-])c1)Nc1cc(Cl)ccc1O2', '95 % of control'),
  ('O=C(O)c1c(F)c(F)c(Oc2c(F)c(F)c(F)c(Oc3c(F)c(F)c(C(=O)O)c(F)c3F)c2F)c(F)c1F', '107 % of control'),
  ('Cc1cccc(NC(=O)c2ccccc2C(=O)O)c1C', '98 % of control'),
  ('O=C(OC1CSC1)c1ccc([N+](=O)[O-])cc1', '95 % of control'),
  ('CCOC(=O)c1nc[nH]c1C', '103 % of control');
